System: RSV strain A2
assayNotes: RSV antiviral cytoprotection assay in Hep2 cells (96-well and 384-well format, Cell TiterGlo read-out)
Type: cell-based, Respiratory Syncytial Virus (RSV)
conditionSummary: human respiratory syncytial virus, HEp-2, 0.5 uM; RSV-induced cytopathic effect in Hep2 cells; calculated from fitted dose response curve, normalized to 0% and 100%
Think of 90% as a floor: if inhibition at 0.5 µM stands on it or above, it is Y; beneath it, N.

Consider the following illustrative entries.
lineNotation | classAssignment
CS(=O)(=O)Nc1ccc(Cl)cc1C(=O)N1CCCC[C@H]1c1cc2nc(N3CC(F)C3)cc(N3CCOCC3)n2n1 | Y
Cc1cn2nc([C@@H]3CCCCN3C(=O)c3scc4c3OCCO4)cc2nc1N1CC[C@H](N)C1 | Y
CC(=O)Nc1ccc(C)cc1C(=O)N1CCCC[C@H]1c1cc2nc(N3CC[C@H](N)C3)c(C)cn2n1 | Y
Cc1cn2nc([C@@H]3CCCCN3C(=O)c3cccc(Cl)n3)cc2nc1N1CC[C@H](N)C1 | Y

Let's switch to this compound now.
## Input Record Cc1[nH]c2cc([C@@H]3CCCCN3C(=O)c3cc(F)ccc3NS(C)(=O)=O)nn2c(=O)c1F ; criterion: inhibition at 0.5 µM no lower than 90%. Met?
## Output N

* * *

Test system: RSV strain A2
assayNotes: RSV antiviral cytoprotection assay in Hep2 cells (96-well and 384-well format, Cell TiterGlo read-out)
Type: cell-based, Respiratory Syncytial Virus (RSV)
conditionSummary: human respiratory syncytial virus, HEp-2, 0.5 uM; RSV-induced cytopathic effect in Hep2 cells; calculated from fitted dose response curve, normalized to 0% and 100%
readoutKind: inhibition at 0.5 µM
A complete answer gives the number followed by the unit.

lineNotation | studySystem | inhibition at 0.5 µM
Cc1cn2nc([C@@H]3CCCCN3C(=O)c3cc(C4(O)CCCC4)on3)cc2nc1N1CC[C@H](N)C1 | RSV strain A2 | 99%
C[C@@H]1CN(c2cc(N3CCC3)nc3cc([C@@H]4CCCCN4C(=O)c4cc(Cl)ccc4NS(C)(=O)=O)nn23)CCN1 | RSV strain A2 | 100%

## Input Suppose we examine the compound Cc1ccc(NS(C)(=O)=O)c(C(=O)N2Cc3ccccc3C[C@H]2c2cc3nc(C)c(C)c(N(C)C)n3n2)c1 ; what inhibition at 0.5 µM value has been reported?
## Output 91%

## Input Suppose we examine the compound Cc1cn2nc([C@@H]3CCCCN3C(=O)c3csnn3)cc2nc1N1CC[C@H](N)C1 ; what inhibition at 0.5 µM value has been reported?
## Output 97%

## Input Suppose we examine the compound Cc1cn2nc([C@@H]3CCCCN3C(=O)c3cc(Cl)ccc3NS(C)(=O)=O)cc2nc1N1CC[C@@H](CO)C1 ; what inhibition at 0.5 µM value has been reported?
## Output 95%

* * *

Catalogue of inhibition at 0.5 µM values
Tested on: RSV strain A2
assayNotes: RSV antiviral cytoprotection assay in Hep2 cells (96-well and 384-well format, Cell TiterGlo read-out)
Type: cell-based, Respiratory Syncytial Virus (RSV)
conditionSummary: human respiratory syncytial virus, HEp-2, 0.5 uM; RSV-induced cytopathic effect in Hep2 cells; calculated from fitted dose response curve, normalized to 0% and 100%
Kindly provide the numeric value in % only, without the unit symbol.

// below: answered compounds
lineNotation | inhibition at 0.5 µM, %
CC(=O)Nc1ccc(F)cc1C(=O)N1CCCC[C@H]1c1cc2[nH]c(C)c(C)c(=O)n2n1 | 89
Cc1cn2nc([C@@H]3CCCCN3C(=O)c3cc(Cl)ccc3NS(C)(=O)=O)cc2nc1N1CCC(C#N)CC1 | 99
Cc1cn2nc([C@@H]3CCCCN3C(=O)c3csc4c3CCCC4)cc2nc1N1CC[C@H](N)C1 | 91
Cc1cn2nc([C@@H]3CCCCN3C(=O)c3cccc(F)c3F)cc2nc1N1CC[C@H](N)C1 | 100
Cc1ccc(NS(C)(=O)=O)c(C(=O)N2CCCC[C@H]2c2cc3nc(C)c(C)c(NC4CC4)n3n2)c1 | 98

## Input Suppose we examine the compound Cc1cn2nc([C@@H]3CCCCN3C(=O)c3cc(C)n(C)n3)cc2nc1N1CC[C@H](N)C1 ; what inhibition at 0.5 µM value has been reported?
## Output 60

## Input Suppose we examine the compound Cc1cn2nc([C@@H]3CCCCN3C(=O)c3c4c(nn3C)CCCC4)cc2nc1N1CC[C@H](N)C1 ; what inhibition at 0.5 µM value has been reported?
## Output 94

* * *

Catalogue of inhibition at 0.5 µM values
Test system: RSV strain A2
assayNotes: RSV antiviral cytoprotection assay in Hep2 cells (96-well and 384-well format, Cell TiterGlo read-out)
Format: cell-based, Respiratory Syncytial Virus (RSV)
conditionSummary: human respiratory syncytial virus, HEp-2, 0.5 uM; RSV-induced cytopathic effect in Hep2 cells; calculated from fitted dose response curve, normalized to 0% and 100%

// below: answered compounds
compound | studySystem | result
Cc1cn2nc([C@@H]3CCCCN3C(=O)c3ccnc(-n4cnnc4)c3)cc2nc1N1CC[C@H](N)C1 [Compound 388] | RSV strain A2 | 100%
Cc1ccc(NS(C)(=O)=O)c(C(=O)N2CCCC[C@H]2c2cc3nc(C)c(C)c(N4CCCCC4)n3n2)c1 [Compound 236] | RSV strain A2 | 98%
Cc1cc(C2CC2)nc2cc([C@@H]3CCCCN3C(=O)C(NS(C)(=O)=O)c3ccccc3)nn12 (stereo partly shown) [Compound 241] | RSV strain A2 | 99%
Cc1cc(C)n2nc(C(=O)N3CCCCC3c3cc4nc(N5CC[C@H](N)C5)c(C)cn4n3)nc2n1 (stereo partly shown) [Compound 397] | RSV strain A2 | 3%

## Input Suppose we examine the compound Cc1cn2nc([C@@H]3CCCCN3C(=O)c3ccc4ncsc4c3)cc2nc1N1CC[C@H](N)C1 [Compound 361] ; what inhibition at 0.5 µM value has been reported?
## Output 88%

## Input Suppose we examine the compound CS(=O)(=O)Nc1ccc(Cl)cc1C(=O)N1CCCC[C@H]1c1cc2nc(N3CCC3)cc(N3C[C@H]4C[C@@H]3CN4)n2n1 [Compound 147] ; what inhibition at 0.5 µM value has been reported?
## Output 98%

## Input Suppose we examine the compound CS(=O)(=O)Nc1ccc(N)cc1C(=O)N1CCCC[C@H]1c1cc2nc(N3CCC3)cc(N3CCOCC3)n2n1 [Compound 193] ; what inhibition at 0.5 µM value has been reported?
## Output 100%

* * *

Catalogue of inhibition at 0.5 µM values
Test system: RSV strain A2
assayNotes: RSV antiviral cytoprotection assay in Hep2 cells (96-well and 384-well format, Cell TiterGlo read-out)
Format: cell-based, Respiratory Syncytial Virus (RSV)
conditionSummary: human respiratory syncytial virus, HEp-2, 0.5 uM; RSV-induced cytopathic effect in Hep2 cells; calculated from fitted dose response curve, normalized to 0% and 100%
Kindly provide the numeric value in % only, without the unit symbol.

// below: answered compounds
compound | studySystem | inhibition at 0.5 µM [%]
Cc1cc(N2CCCC2)nc2cc([C@@H]3CCCCN3C(=O)c3cc(Cl)ccc3NS(C)(=O)=O)nn12 [Compound 46] | RSV strain A2 | 100
Cc1ccc(O)cc1C(=O)N1CCCC[C@H]1c1cc2nc(N3CC[C@H](N)C3)c(C)cn2n1 [Compound 292] | RSV strain A2 | 59
Cc1cn2nc([C@@H]3CCCCN3C(=O)c3cccc4ccccc34)cc2nc1N1CC[C@H](N)C1 [Compound 338] | RSV strain A2 | 72
Cc1cn2nc([C@@H]3CCCCN3C(=O)c3ccco3)cc2nc1N1CC[C@H](N)C1 [Compound 258] | RSV strain A2 | 100

## Input Suppose we examine the compound CCC(=O)Nc1nonc1C(=O)N1CCCC[C@H]1c1cc2nc(N3CC[C@H](N)C3)c(C)cn2n1 [Compound 372] ; what inhibition at 0.5 µM value has been reported?
## Output 38

## Input Suppose we examine the compound CS(=O)(=O)Nc1ccc(Cl)cc1C(=O)N1CCCC[C@H]1c1cc2nc(N3CCC3)cc(N3CCCCN3)n2n1 [Compound 252] ; what inhibition at 0.5 µM value has been reported?
## Output 92

## Input Suppose we examine the compound Cc1cn2nc([C@@H]3CCCCN3C(=O)c3cc(-c4ccccc4)on3)cc2nc1N1CC[C@H](N)C1 [Compound 383] ; what inhibition at 0.5 µM value has been reported?
## Output 99

* * *

Catalogue of inhibition at 0.5 µM values
Test system: RSV strain A2
assayNotes: RSV antiviral cytoprotection assay in Hep2 cells (96-well and 384-well format, Cell TiterGlo read-out)
Assay type: cell-based, Respiratory Syncytial Virus (RSV)
conditionSummary: human respiratory syncytial virus, HEp-2, 0.5 uM; RSV-induced cytopathic effect in Hep2 cells; calculated from fitted dose response curve, normalized to 0% and 100%
Kindly provide the numeric value in % only, without the unit symbol.

compound | readoutUnits | inhibition at 0.5 µM
Cc1cn2nc([C@@H]3CCCCN3C(=O)c3cc(Cl)ccc3NS(C)(=O)=O)cc2nc1N1CC(OC(=O)[C@@H](N)C(C)C)C1 | % | 100
Cc1cn2nc([C@@H]3CCCCN3C(=O)c3cc(Cl)ccc3NS(C)(=O)=O)cc2nc1N1C[C@@H](N)C[C@H]1CO | % | 100
Cc1ccc(N2CCCS2(=O)=O)c(C(=O)N2CCCC[C@H]2c2cc3nc(C4CC4)cc(C)n3n2)c1 | % | 100

## Input Suppose we examine the compound Cc1cn2nc([C@@H]3CCCCN3C(=O)c3ccc4c(c3)nnn4C)cc2nc1N1CC[C@H](N)C1 ; what inhibition at 0.5 µM value has been reported?
## Output 100

## Input Suppose we examine the compound Cc1cn2nc([C@@H]3CCCCN3C(=O)c3cc(Cl)ccc3NS(C)(=O)=O)cc2nc1N1CCN=C1N ; what inhibition at 0.5 µM value has been reported?
## Output 99

## Input Suppose we examine the compound Cc1ccc(NS(C)(=O)=O)c(C(=O)N2CCCC[C@H]2c2cc3nc(C)c(C)c(N(C)C)n3n2)c1 ; what inhibition at 0.5 µM value has been reported?
## Output 100

## Input Suppose we examine the compound Cc1cc(Cl)ccc1C(=O)N1CCCC[C@H]1c1cc2nc(N3CC[C@H](N)C3)c(C)cn2n1 ; what inhibition at 0.5 µM value has been reported?
## Output 99

## Input Suppose we examine the compound Cc1cn2nc([C@@H]3CCCCN3C(=O)c3c(F)ccc(F)c3F)cc2nc1N1CC[C@H](N)C1 ; what inhibition at 0.5 µM value has been reported?
## Output 100

## Input Suppose we examine the compound Cc1cn2nc([C@@H]3CCCCN3C(=O)c3cc(N)ccc3NS(C)(=O)=O)cc2nc1N1CC(O)C1 ; what inhibition at 0.5 µM value has been reported?
## Output 100

## Input Suppose we examine the compound Cc1cn2nc([C@@H]3CCCCN3C(=O)c3cc(Cl)ccc3NS(C)(=O)=O)cc2nc1N1CC(CO)C1 ; what inhibition at 0.5 µM value has been reported?
## Output 99

## Input Suppose we examine the compound COC(=O)Nc1ccc(Cl)cc1C(=O)N1CCCC[C@H]1c1cc2nc(N3CC[C@H](N)C3)c(C)cn2n1 ; what inhibition at 0.5 µM value has been reported?
## Output 100

## Input Suppose we examine the compound COc1ccc(Cl)c(C(=O)N2CCCC[C@H]2c2cc3nc(N4CC[C@H](N)C4)c(C)cn3n2)c1 ; what inhibition at 0.5 µM value has been reported?
## Output 100

## Input Suppose we examine the compound CS(=O)(=O)Nc1ccc(Cl)cc1C(=O)N1CCCCCC1c1cc2nc(N3CC(N)C3)cc(N3CCOCC3)n2n1 (stereo not drawn) ; what inhibition at 0.5 µM value has been reported?
## Output 100

## Input Suppose we examine the compound CCn1nccc1C(=O)N1CCCC[C@H]1c1cc2nc(N3CC[C@H](N)C3)c(C)cn2n1 ; what inhibition at 0.5 µM value has been reported?
## Output 99

## Input Suppose we examine the compound Cc1ccc(NS(C)(=O)=O)c(C(=O)N2CCCC(C)C2c2cc3nc(C)c(C)cn3n2)c1 (stereo not drawn) ; what inhibition at 0.5 µM value has been reported?
## Output 90
